Run description: logP determination by HPLC on a reversed-phase column (C18)
Type: physicochemical
Conditions used: HPLC-MS, reversed-phase column (C18); Table I-T3
Reported log P values for a set of compounds

Sample answers from the record:
CC[S+]([O-])c1cc(C(F)(F)F)cc(C#N)c1-n1cc(-c2ccc(Cl)c(C(=O)NC3CC3)c2)cn1 (stereo not shown)    2.7
O=C(NC1CC1)c1cc(-c2cnn(-c3c(I)cc(C(F)(C(F)(F)F)C(F)(F)F)cc3C(F)(F)F)c2)ccc1Cl    4.5

Value lookup for log P; key = CN(C(=O)c1cc(-c2cnn(-c3c(Cl)cc(C(O)(C(F)(F)F)C(F)(F)F)cc3Cl)c2)cnc1Cl)C1CC1 3.4

Value lookup for log P; key = N#CC1(NC(=O)c2cc(-c3cnn(-c4c(Cl)cc(C(F)(C(F)(F)F)C(F)(F)F)cc4OC(F)(F)F)c3)ccc2Cl)CC1 4.5

Value lookup for log P; key = O=C(NC1CC1)c1cc(-c2cnn(-c3c(Cl)cc(C(F)(C(F)(F)F)C(F)(F)F)cc3OC(F)F)c2)ccc1Cl 4.3

Value lookup for log P; key = Cc1ncc(-c2cnn(-c3c(Cl)cc(C(F)(C(F)(F)F)C(F)(F)F)cc3Cl)c2)cc1C(=O)N(C)C1CC1 3.7

Value lookup for log P; key = Cc1cc(C(F)(C(F)(F)F)C(F)(F)F)cc(C(F)(F)F)c1-n1cc(-c2cnc(Cl)c(C(=O)N(C)C3(C#N)CC3)c2)cn1 4.4

====

Run description: logP determination by HPLC on a reversed-phase column (C18)
Type: physicochemical
Conditions used: HPLC-MS method a), reversed-phase column (C18); Table I-T3
Reported logP^a) values for a set of compounds
The answer should be a number; do not append a unit.

Sample answers from the record:
O=C(NC1CC1)c1cc(-c2cnn(-c3ccc(C(F)(C(F)(F)F)C(F)(F)F)cc3Cl)c2)ccc1Cl    4.3
Cc1cc(C(F)(C(F)(F)F)C(F)(F)F)cc(C)c1-n1cc(-c2ccc(Cl)c(C(=O)NCC(=O)NCC(F)(F)F)c2)cn1    4.1
O=C(NC1CC1)c1cc(-c2cnn(-c3ccc(C(F)(C(F)(F)F)C(F)(F)F)cc3OC(F)(F)F)c2)ccc1Cl    4.7

Moving on to the next compound.
Value lookup for logP^a); key = CCc1cc(C(F)(C(F)(F)F)C(F)(F)F)cc(C)c1-n1cc(-c2ccc(Cl)c(C(=O)NC3(C#N)CC3)c2F)cn1 4.6

====

System: Myzus persicae
Run description: Myzus persicae - spray test
Format: in vivo
Conditions used: application rate 100 g/ha; Chinese cabbage leaf discs; after 6 days
Reported efficacy values for a set of compounds
Reply with the number and its unit after it.

Sample answers from the record:
Cc1cc(C(F)(C(F)(F)F)C(F)(F)F)cc(C(F)(F)F)c1-n1cc(-c2ccc(Cl)c(C(=O)NC3(C#N)CC3)c2)cn1    100%
Cc1cc(C(F)(C(F)(F)F)C(F)(F)F)cc(Cl)c1-n1cc(-c2ccc(Cl)c(C(=O)NC3(C#N)CC3)c2)cn1    90%
N#CC1(NC(=O)c2cc(-c3cnn(-c4c(Cl)cc(OC(F)(F)F)cc4Cl)c3)ccc2Cl)CC1    90%
Cc1ncc(-c2cnn(-c3c(Cl)cc(C(F)(F)F)cc3Cl)c2)cc1C(=O)N(C)C1(C#N)CC1    90%
N#CC1(NC(=O)c2cc(-c3cnn(-c4c(Cl)cc(C(F)(C(F)(F)F)C(F)(F)F)cc4OC(F)(F)F)c3)ccc2Cl)CC1    90%

Value lookup for efficacy; key = Cc1cc(C(F)(C(F)(F)F)C(F)(F)F)cc(C)c1-n1cc(-c2cnc(C)c(C(=O)N(C)C3(C#N)CC3)c2)cn1 100%

Value lookup for efficacy; key = CCc1cc(C(F)(C(F)(F)F)C(F)(F)F)cc(C)c1-n1cc(-c2cncc(C(=O)NC3(C#N)CC3)c2)cn1 90%

Value lookup for efficacy; key = O=C(NC1CC1)c1cc(-c2cnn(-c3c(Cl)cc(C(F)(C(F)(F)F)C(F)(F)F)cc3C(F)(F)F)c2)cnc1Cl 100%

Value lookup for efficacy; key = CN(C(=O)c1cc(-c2cnn(-c3c(Cl)cc(C(F)(C(F)(F)F)C(F)(F)F)cc3C(F)(F)F)c2)cnc1Cl)C1CC1 100%

Value lookup for efficacy; key = CCN(C(=O)c1cc(-c2cnn(-c3c(Cl)cc(C(F)(F)F)cc3Cl)c2)cnc1Cl)C1CC1 90%

Value lookup for efficacy; key = Cc1ncc(-c2cnn(-c3c(Cl)cc(C(F)(F)F)cc3Cl)c2)cc1C(=O)NC1(C#N)CC1 100%

Value lookup for efficacy; key = Cc1ncc(-c2cnn(-c3c(Cl)cc(C(F)(C(F)(F)F)C(F)(F)F)cc3C(F)(F)F)c2)cc1C(=O)NC1(C#N)CC1 100%

Value lookup for efficacy; key = Cc1cc(C(F)(C(F)(F)F)C(F)(F)F)cc(C(F)(F)F)c1-n1cc(-c2ccc(Cl)c(C(=O)NC3CC3)c2)cn1 100%
